Data origin: PubChem BioAssay (NCI)

# System: ACHN renal
# Procedure Details: NCI-60 one-dose screen, 48 h (100 = growth as untreated, 0 = no growth, -100 = all killed)
# Cond: 10 µM
This is part of a sample that, as a whole, favours compounds with a hit. Of some 83,000 tested, about 20% had one in any assay.
The entries below come with measured growth values attached.
Give just the numeric value; % need not be written.

Here is how some compounds turned out for growth.
O=C(c1ccc(Cl)cc1)c1ccccc1Cl	95
FC(F)(F)c1ccc2c(c1)N(CCCN1CCN(C3CC3)CC1)c1ccccc1S2	78.1
COc1ccc(C(=O)C(Br)C(Br)C(=O)O)cc1 (stereo not given)	101
CC(=O)/C(Cc1ccccc1)=N/O	98.6

Incoming: So what does the record say about growth for Oc1ccc2c(c1)OCC1(O)Cc3cc(O)c(O)cc3C21 (stereo not given) ?
Outgoing: 104
